Test system: K-562 leukemia
Test: NCI tumour cell line growth inhibition, 48 h; in the data active = GI50 below about 0.43 µM; inactive = the rest
Can you answer with just one of these options? active, inactive

For orientation, consider the following solved cases.
[
  {
    "compound": "Nc1ccc(N=Nc2ccccc2)c(N)n1",
    "group_label": "inactive"
  },
  {
    "compound": "CCN(CC)CCOc1ccc(Nc2ncc3cc(-c4c(Cl)cccc4Cl)c(=O)n(CCOC)c3n2)cc1",
    "group_label": "active"
  },
  {
    "compound": "COc1ccc(Nc2ccnc(NCCNc3ccnc4cc(Cl)ccc34)n2)cc1",
    "group_label": "inactive"
  },
  {
    "compound": "CC(=N\\O)/C(C)=N/O.CC(=N\\O)/C(C)=N/O.CC(=N\\O)/C(C)=N/O.CC(=N\\O)/C(C)=N/O.[Cu].[Cu]",
    "group_label": "inactive"
  },
  {
    "compound": "C[C@@H]1COCCN1c1nc(-c2cnc(N)cc2C(F)F)nc(N2[C@H](C)COC[C@@H]2C)n1",
    "group_label": "active"
  },
  {
    "compound": "Nc1nc2c(c3ncccc13)C(c1ccc(Cl)c(Cl)c1)Cc1ncccc1-2 (stereo not given)",
    "group_label": "inactive"
  },
  {
    "compound": "Cc1[nH]c(C(=O)Nc2ccc(C(=O)N3CCNCC3)cc2OC(C)C)c(Cl)c1Cl",
    "group_label": "inactive"
  },
  {
    "compound": "O=C(Nc1ncc(Cc2ccccc2)s1)c1ccc2c(c1)OCCCO2",
    "group_label": "active"
  },
  {
    "compound": "CN(C)c1ccc(C(=O)c2ccc(N(C)C)c(N)c2)cc1N",
    "group_label": "inactive"
  }
]

input: Query: recorded result category for "C=C1C(=O)O[C@H]2[C@H]1CC/C(CNS(=O)(=O)c1ccc3ccccc3c1)=C\CC[C@@]1(C)O[C@@H]21" in this test
output: inactive

###

Tested on: TK-10 renal
Assay: NCI tumour cell line growth inhibition, 48 h
metric: TGI

[
  {
    "compound": "Cc1cc(=O)n2nc(CSc3nnc(N)s3)sc2n1",
    "TGI": "> 100 µM"
  },
  {
    "compound": "O=Nc1c(-c2cccc([N+](=O)[O-])c2)nc2cnccn12",
    "TGI": "26.3 µM"
  },
  {
    "compound": "COc1ccc(-c2nsc3c2NC(=O)CC3c2ccc3c(c2)OCO3)cc1 (stereo not given)",
    "TGI": "> 100 µM"
  },
  {
    "compound": "COc1ccc(C[C@H](N)C(=O)N2C[C@H](CO)C[C@H](n3ccc(=O)[nH]c3=O)C2)cc1",
    "TGI": "> 100 µM"
  },
  {
    "compound": "Nc1ccc(N=Nc2ccccc2)c(N)n1",
    "TGI": "> 100 µM"
  }
]

input: Which TGI is listed for "CC1(C)[C@@H](Cn2cnc3c(=O)[nH]c(N)nc32)CC[C@@]1(C)CO" ?
output: > 100 µM

input: One more compound: "CCCCCCCCCCCCCC[P+](CCCCCC)(CCCCCC)CCCCCC"
output: 1.92 µM

input: One more compound: "CN1C/C(=C\c2ccc(Cl)cc2)C(=O)/C(=C/c2ccc(Cl)cc2)C1"
output: > 100 µM

input: One more compound: "Cc1ccc(NC(=S)Nc2c(C)n(C)n(-c3ccccc3)c2=O)cc1"
output: > 100 µM

input: One more compound: O=C(NC1(C(=O)NNc2nnc(-c3ccccc3)c(-c3ccccc3)n2)C(c2ccccc2)C(c2ccccc2)=NN1c1ccccc1)c1ccccc1 (stereo not given)
output: > 100 µM

###

Test system: NCI-H23 lung
Experiment: NCI tumour cell line growth inhibition, 48 h; in the data active means GI50 below about 0.43 µM; inactive means the rest
Can you answer with just one of these options? active, inactive

[
  {
    "compound": "CSc1ccc(-c2cc(-c3ccc(NC(=O)CCCN4CCCC4)cc3)nc(-c3ccc(NC(=O)CCCN4CCCC4)cc3)c2)cc1",
    "target_desc": "NCI-H23 lung",
    "group_label": "inactive"
  },
  {
    "compound": "Nc1nc2c(c3ncccc13)C(c1ccc(Cl)c(Cl)c1)Cc1ncccc1-2 (centres undefined)",
    "target_desc": "NCI-H23 lung",
    "group_label": "inactive"
  },
  {
    "compound": "CCCCCCCCCCCCCC[P+](CCCCCC)(CCCCCC)CCCCCC",
    "target_desc": "NCI-H23 lung",
    "group_label": "active"
  },
  {
    "compound": "c1cc(C2CCCCC2)ccc1OCCCCCCN1CCNCC1",
    "target_desc": "NCI-H23 lung",
    "group_label": "inactive"
  },
  {
    "compound": "Nc1c(C(=O)c2cccc(-c3ccc[n+]([O-])c3)c2)cnn1-c1ccc(F)cc1F",
    "target_desc": "NCI-H23 lung",
    "group_label": "inactive"
  }
]

input: Query: recorded result category for COc1ccc(C2=CC(c3cc(OC)c(OC)c(OC)c3)NC(=O)N2)cc1OC (centres undefined) in this test
output: inactive

###

Tested on: NCI-H226 lung
Experiment: NCI tumour cell line growth inhibition, 48 h
Quick list: TGI per entry.

These solved cases illustrate the format of a correct answer.
[
  {
    "molecule": "Nc1ccc(-c2nc3ccccc3[nH]2)c(O)c1",
    "target_desc": "NCI-H226 lung",
    "TGI": "> 100 µM"
  },
  {
    "molecule": "COc1ccc(C2=CC(c3cc(OC)c(OC)c(OC)c3)NC(=O)N2)cc1OC (stereo unspecified)",
    "target_desc": "NCI-H226 lung",
    "TGI": "> 100 µM"
  },
  {
    "molecule": "N=S(=O)(c1ccccc1)c1ccccc1[N+](=O)[O-] (stereo unspecified)",
    "target_desc": "NCI-H226 lung",
    "TGI": "> 100 µM"
  },
  {
    "molecule": "COc1ccc2c(c1)nc1n2C(N)=Nc2ccccc2S1",
    "target_desc": "NCI-H226 lung",
    "TGI": "> 100 µM"
  },
  {
    "molecule": "COc1cc2c(c(OC)c1OC)-c1ccc(NNC(=S)N(Cc3cccc(C[N+](Cc4cccc(CNC56CC7CC(CC(C7)C5)C6)c4)(Cc4cccc(CNC56CC7CC(CC(C7)C5)C6)c4)Cc4cccc(CN(C(=S)NNc5ccc6c(cc5=O)[C@@H](NC(C)=O)CCc5cc(OC)c(OC)c(OC)c5-6)C56CC7CC(CC(C7)C5)C6)c4)c3)C34CC5CC(CC(C5)C3)C4)c(=O)cc1[C@@H](NC(C)=O)CC2 (stereo partly specified)",
    "target_desc": "NCI-H226 lung",
    "TGI": "9.97 µM"
  }
]

input: Which TGI is listed for "COC(=O)Nc1nc2ccc(Oc3ccc(NC(=O)Nc4cccc(Br)c4)cc3)cc2[nH]1" ?
output: > 25 µM

###

Test system: OVCAR-3 ovarian
Experiment: NCI tumour cell line growth inhibition, 48 h
metric: TGI

[
  {
    "molecule": "CCN(CC)c1ccc(N=C2C=C(C(=O)Nc3ccc(S(C)(=O)=O)cc3)C(=O)c3ccccc32)c(C)c1",
    "TGI": "> 100 µM"
  },
  {
    "molecule": "CC1CCC2(NC1)OC1CC3[C@@H]4CC=C5C=CCC[C@]5(C)C4CC[C@]3(C)C1C2C (stereo not given in full)",
    "TGI": "80.5 µM"
  }
]

input: Which TGI is listed for NC(=O)C(Br)CBr (stereo not given) ?
output: 2.83 µM

input: One more molecule: "O=Nc1c(-c2cccc([N+](=O)[O-])c2)nc2cnccn12"
output: 37.4 µM

input: One more molecule: "COc1cc(/C=C2\N=C(c3ccccc3)N(/N=C3\C(=O)Nc4ccccc43)C2=O)cc(OC)c1OC"
output: > 100 µM

###

Quick list: GI50 per entry.
Test system: NCI-H226 lung
Assay: NCI tumour cell line growth inhibition, 48 h

These solved cases illustrate the format of a correct answer.
[
  {
    "molecule": "COc1ccc(Nc2ncccc2/C=C/C(=O)c2cc(OC)c(OC)c(OC)c2)cc1",
    "target_desc": "NCI-H226 lung",
    "value_reported": "1.37 µM"
  },
  {
    "molecule": "Nc1nc2c(c3ncccc13)C(c1ccc(Cl)c(Cl)c1)Cc1ncccc1-2 (stereo not given)",
    "target_desc": "NCI-H226 lung",
    "value_reported": "16.6 µM"
  },
  {
    "molecule": "Cc1ccc2c[c]1[Hg][CH2]COS2(=O)=O",
    "target_desc": "NCI-H226 lung",
    "value_reported": "19.8 µM"
  }
]

input: Which GI50 is listed for N#Cc1c2ccccc2c2n1-c1ccccc1OC(c1ccccc1)C2=O (stereo not given) ?
output: 3.09 µM

input: One more molecule: "Cc1[nH]c(C(=O)Nc2ccc(C(=O)N3CCNCC3)cc2OC(C)C)c(Cl)c1Cl"
output: 2.5 µM
